# Test system: Caco-2 cell line
# assay-remarks: Cytotoxicity MTS assay, Caco-2 cell line
# Type: cell-based
# measurement-conditions: 0.5μM; second assay; Caco-2 cell line
quantity-kind: OD490 Mean
Number only, please.

# count of solved cases: 4
1. CCOC(=O)C1=C(C)NC(=S)NC1c1cccc(O)c1 (stereo not shown) [Monastrol, monastrol, reference compound] : 0.6461
2. COC(=O)c1[nH]c(C2NC(=S)NC(C)=C2C(=O)c2ccccc2)c(C(=O)OC)c1C (stereo not shown) [D14] : 0.6725
3. CCOc1ccccc1C1NC(=S)NC(C)=C1C(=O)Nc1ccc(Cl)cc1 (stereo not shown) [C9] : 0.6430
4. CCOC(=O)c1c(C2NC(=O)NC(C)=C2C(=O)Nc2ccccc2OC)[nH]c(C(=O)OC)c1C (stereo not shown) [D1] : 0.6066

In: For the molecule shown here, CCOC(=O)c1c(C2NC(=O)NC(C)=C2C(=O)Nc2ccccc2C)[nH]c(C(=O)OC)c1C (stereo not shown) [D2] , give the reported OD490 Mean.
Out: 0.7070

In: What do you have for CCOC(=O)c1[nH]c(C2NC(=S)NC(C)=C2C(=O)OC)c(C(=O)OCC)c1C (stereo not shown) [D12] ?
Out: 0.6834

In: Would you kindly repeat that for CCOC(=O)c1[nH]c(C2NC(=O)NC(C)=C2C(=O)Nc2ccccc2OC)c(C(=O)OC)c1C (stereo not shown) [D3] ?
Out: 0.7146

In: Moving on to the next molecule: CCOC(=O)c1c(C2NC(=O)NC(C)=C2C(=O)Nc2ccccc2)[nH]c(C(=O)OC)c1C (stereo not shown) [D10]
Out: 0.5530

In: Now give it for CCOC(=O)c1[nH]c(C2NC(=O)NC(C)=C2C(=O)Nc2ccccc2C)c(C(=O)OC)c1C (stereo not shown) [D4] too.
Out: 0.5955

In: What do you get for CCOC(=O)c1[nH]c(C2NC(=O)NC(C)=C2C(=O)Nc2ccc(Cl)cc2)c(C(=O)OCC)c1C (stereo not shown) [D7] ?
Out: 0.6172

====

Below is a list of entries, each paired with its recorded OD490 Well 2 value.
# Tested on: Caco-2 cell line
# assay-remarks: Cytotoxicity MTS assay, Caco-2 cell line
# Type: cell-based
# measurement-conditions: 10μM; second assay; Caco-2 cell line
Give the figure only, with no unit attached.

1) CCOC(=O)c1[nH]c(C2NC(=S)NC(C)=C2C(=O)OC)c(C(=O)OCC)c1C (stereo not shown) [D12] : 0.6539
2) CCOC(=O)c1[nH]c(C2NC(=O)NC(C)=C2C(=O)Nc2ccccc2OC)c(C(=O)OC)c1C (stereo not shown) [D3] : 0.7063
3) CCOC(=O)c1[nH]c(C2NC(=O)NC(C)=C2C(=O)Nc2ccc(Cl)cc2)c(C(=O)OCC)c1C (stereo not shown) [D7] : 0.5543

In: What does the data say about its OD490 Well 2? Entry: COC(=O)c1[nH]c(C2NC(=S)NC(C)=C2C(=O)c2ccccc2)c(C(=O)OC)c1C (stereo not shown) [D14]
Out: 0.6117

In: Again, but for CCOC(=O)C1=C(C)NC(=S)NC1c1cccc(O)c1 (stereo not shown) [Monastrol, monastrol, reference compound]
Out: 0.6962

====

# System: Hela cell line
# assay-remarks: Cytotoxicity MTS assay, Hela cell line;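 also: blank control wells received 0.025% DMSO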
# Format: cell-based
# measurement-conditions: Hela cell line, MTS, 10μM, third assay
quantity-kind: OD490 value, Well 1
Write the number on its own, no unit after it.

Answered cases to consult:
1) CCOC(=O)c1c(C2NC(=O)NC(C)=C2C(=O)Nc2ccccc2OC)[nH]c(C(=O)OC)c1C (centres unmarked) [D1] : 2.5635
2) CCOC(=O)c1[nH]c(C2NC(=O)NC(C)=C2C(=O)Nc2ccccc2OC)c(C(=O)OC)c1C (centres unmarked) : 2.7745
3) CCOC(=O)c1c(C2NC(=O)NC(C)=C2C(=O)Nc2ccccc2)[nH]c(C(=O)OC)c1C (centres unmarked) : 2.3685
4) CCOC(=O)c1c(C2NC(=O)NC(C)=C2C(=O)Nc2ccccc2C)[nH]c(C(=O)OC)c1C (centres unmarked) [D2] : 2.5659
5) CCOC(=O)c1[nH]c(C2NC(=O)NC(C)=C2C(=O)Nc2ccccc2C)c(C(=O)OC)c1C (centres unmarked) : 2.3545
6) CCOC(=O)c1[nH]c(C2NC(=S)NC(C)=C2C(=O)OC)c(C(=O)OCC)c1C (centres unmarked) : 2.5898
7) CCOC(=O)c1[nH]c(C2NC(=O)NC(C)=C2C(=O)Nc2ccc(Cl)cc2)c(C(=O)OCC)c1C (centres unmarked) : 2.5657

Then there is this compound:
In: Give the measured OD490 value, Well 1 of CCOc1ccccc1C1NC(=S)NC(C)=C1C(=O)Nc1ccc(Cl)cc1 (centres unmarked) .
Out: 2.2123
